Exercise: state measured self-cleavage kobs at 10000 uM GlcN6P for each of the variants provided.
B1: glmS ribozyme (parent)
chain: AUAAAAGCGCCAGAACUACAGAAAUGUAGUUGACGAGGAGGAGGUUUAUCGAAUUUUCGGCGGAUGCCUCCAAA

Variants of: B1
Assay: self-cleavage kobs at 10000 uM GlcN6P; higher = faster cleavage; RNA array
Conditions: with glucosamine-6-phosphate
Fewer inactive variants are shown than the library holds.

Prompt line: Give recorded self-cleavage kobs at 10000 uM GlcN6P. A6G G32C
Response line: < 1e-05 s⁻¹

Prompt line: Give recorded self-cleavage kobs at 10000 uM GlcN6P. C10U U45G
Response line: < 1e-05 s⁻¹

Prompt line: Give recorded self-cleavage kobs at 10000 uM GlcN6P. G38C G41A
Response line: < 1e-05 s⁻¹

Prompt line: Give recorded self-cleavage kobs at 10000 uM GlcN6P. G7C C70A
Response line: < 1e-05 s⁻¹

Prompt line: Give recorded self-cleavage kobs at 10000 uM GlcN6P. G13U U30G A48C
Response line: < 1e-05 s⁻¹

Prompt line: Give recorded self-cleavage kobs at 10000 uM GlcN6P. A12C G29C
Response line: 0.00271 s⁻¹

Prompt line: Give recorded self-cleavage kobs at 10000 uM GlcN6P. U45A C50U
Response line: 0.000107 s⁻¹

Prompt line: Give recorded self-cleavage kobs at 10000 uM GlcN6P. A15U C50G C61A
Response line: 7.29e-05 s⁻¹

Prompt line: Give recorded self-cleavage kobs at 10000 uM GlcN6P. G29C C71U
Response line: 0.00143 s⁻¹

Prompt line: Give recorded self-cleavage kobs at 10000 uM GlcN6P. U30C G35U G43U G66U
Response line: < 1e-05 s⁻¹

Prompt line: Give recorded self-cleavage kobs at 10000 uM GlcN6P. A14U C16G
Response line: 0.000865 s⁻¹

Prompt line: Give recorded self-cleavage kobs at 10000 uM GlcN6P. A15G U45G
Response line: 0.00741 s⁻¹

Prompt line: Give recorded self-cleavage kobs at 10000 uM GlcN6P. G32A C58U
Response line: 6.46e-05 s⁻¹

Prompt line: Give recorded self-cleavage kobs at 10000 uM GlcN6P. G29U A36C A39C
Response line: < 1e-05 s⁻¹

Prompt line: Give recorded self-cleavage kobs at 10000 uM GlcN6P. G13A A42G A48U
Response line: < 1e-05 s⁻¹

Prompt line: Give recorded self-cleavage kobs at 10000 uM GlcN6P. C50G G63U U65A U69G
Response line: 0.000121 s⁻¹

Prompt line: Give recorded self-cleavage kobs at 10000 uM GlcN6P. C50A G63C
Response line: < 1e-05 s⁻¹

Prompt line: Give recorded self-cleavage kobs at 10000 uM GlcN6P. A36C A52C
Response line: < 1e-05 s⁻¹

Prompt line: Give recorded self-cleavage kobs at 10000 uM GlcN6P. C50G A53C C71A
Response line: 6.73e-05 s⁻¹

Prompt line: Give recorded self-cleavage kobs at 10000 uM GlcN6P. U45A C71A
Response line: 0.00396 s⁻¹

Prompt line: Give recorded self-cleavage kobs at 10000 uM GlcN6P. G51C G63U
Response line: < 1e-05 s⁻¹

Prompt line: Give recorded self-cleavage kobs at 10000 uM GlcN6P. G60C U65G
Response line: < 1e-05 s⁻¹

Prompt line: Give recorded self-cleavage kobs at 10000 uM GlcN6P. G13C G43U A52U
Response line: < 1e-05 s⁻¹

Prompt line: Give recorded self-cleavage kobs at 10000 uM GlcN6P. U30G G37C U45A A52G
Response line: < 1e-05 s⁻¹
